assay_target: BTK (Homo sapiens, UniProt Q06187)
Sequence (Q06187 402-655 limits assumed): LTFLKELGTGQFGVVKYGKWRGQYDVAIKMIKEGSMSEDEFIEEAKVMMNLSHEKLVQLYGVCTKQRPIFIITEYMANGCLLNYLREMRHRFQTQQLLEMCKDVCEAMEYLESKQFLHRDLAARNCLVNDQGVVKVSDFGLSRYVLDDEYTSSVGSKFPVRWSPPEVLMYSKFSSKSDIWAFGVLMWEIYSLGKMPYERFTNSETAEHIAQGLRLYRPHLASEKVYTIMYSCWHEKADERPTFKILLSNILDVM
assay_procedure: biochemical
assay_conditions: read-out: BTK inhibition (%), 0.75 uM BTK, […] probe 3l, 15 min preincubation
metric: inhibition at 10 µM (%)

[
  {
    "compound": "COc1ccc(N2C(=O)/C(=C\\c3ccc([N+](=O)[O-])s3)SC2=S)cc1 [PCM-0215671]",
    "metric": "inhibition at 10 µM",
    "result": 22.4
  },
  {
    "compound": "Cc1c(F)cc(C(=O)NC2CC2)cc1-c1ccc(C(=O)NCC(C)(C)C)cn1 [PCM-0095751]",
    "metric": "inhibition at 10 µM",
    "result": -14.5
  },
  {
    "compound": "CC[C@H](Nc1ncnc2nc[nH]c12)c1nc2cccc(F)c2c(=O)n1-c1ccccc1 [PCM-0095266]",
    "metric": "inhibition at 10 µM",
    "result": -5.5
  },
  {
    "compound": "O=C(O)c1cc(O)cc(Cl)c1 [PCM-0216556]",
    "metric": "inhibition at 10 µM",
    "result": -10
  },
  {
    "compound": "CCCCC(C)(O)C/C=C/[C@H]1[C@H](O)CC(=O)[C@@H]1CCCCCCC(=O)OC (stereo partly drawn) [PCM-0215257]",
    "metric": "inhibition at 10 µM",
    "result": -7.8
  },
  {
    "compound": "COc1cc2c(cc1O)C[C@@H]1NCCc3cc(OC)c(O)c-2c31 [PCM-0216385]",
    "metric": "inhibition at 10 µM",
    "result": 6.2
  },
  {
    "compound": "CC(C)c1onc(-c2c(Cl)cccc2Cl)c1COc1ccc(/C=C/c2cccc(C(=O)O)c2)c(Cl)c1 [PCM-0095360]",
    "metric": "inhibition at 10 µM",
    "result": 52.4
  },
  {
    "compound": "CN1CCCN(C(=O)c2cccc(-c3ccc(/C=C4/C(=O)Nc5ccc(Cl)cc54)o3)c2)CC1 [PCM-0215321]",
    "metric": "inhibition at 10 µM",
    "result": 26.9
  },
  {
    "compound": "Cc1ccnc(NS(=O)(=O)c2ccc(N)cc2)n1 [PCM-0086511]",
    "metric": "inhibition at 10 µM",
    "result": 1.6
  },
  {
    "compound": "CC1(C)CC[C@]2(C)CC[C@]3(C)C(=CC[C@@H]4[C@@]5(C)CC[C@@H](O)[C@](C)(C(=O)O)[C@@H]5CC[C@]43C)[C@@H]2C1 [PCM-0216570]",
    "metric": "inhibition at 10 µM",
    "result": -6.9
  },
  {
    "compound": "CC(C)OC(=O)OCOP(=O)(CO[C@H](C)Cn1cnc2c(N)ncnc21)OCOC(=O)OC(C)C [PCM-0214620]",
    "metric": "inhibition at 10 µM",
    "result": -14.8
  },
  {
    "compound": "Cc1cn(-c2cc(NC(=O)c3ccc(C)c(Nc4nccc(-c5cnccn5)n4)c3)cc(C(F)(F)F)c2)cn1 [PCM-0215584]",
    "metric": "inhibition at 10 µM",
    "result": -4.1
  },
  {
    "compound": "C[C@@H]1C(=O)O[C@H](C)[C@H]1C[C@@H](O)[C@](C)(O)[C@H]1CC[C@@]2(O)C3=CC(=O)[C@@H]4C[C@@H](O)[C@@H](O)C[C@]4(C)[C@H]3CC[C@]12C [PCM-0216317]",
    "metric": "inhibition at 10 µM",
    "result": -5.4
  },
  {
    "compound": "O=c1c2cc(O[C@@H]3O[C@H](CO)[C@@H](O)[C@H](O)[C@H]3O)c(O)cc2oc2cc(O)c([C@@H]3O[C@H](CO)[C@@H](O)[C@H](O)[C@H]3O)c(O)c12 [PCM-0214972]",
    "metric": "inhibition at 10 µM",
    "result": -3.1
  },
  {
    "compound": "CC(C)CCCC(C)CCCC(C)CCCCC(C)CCCC(C)CCCC(C)C (stereo not drawn) [PCM-0216154]",
    "metric": "inhibition at 10 µM",
    "result": 8.5
  }
]
